system-name: baculovirus-expressed ALK (Homo sapiens, UniProt Q9UM73)
Sequence (Q9UM73 19-1620): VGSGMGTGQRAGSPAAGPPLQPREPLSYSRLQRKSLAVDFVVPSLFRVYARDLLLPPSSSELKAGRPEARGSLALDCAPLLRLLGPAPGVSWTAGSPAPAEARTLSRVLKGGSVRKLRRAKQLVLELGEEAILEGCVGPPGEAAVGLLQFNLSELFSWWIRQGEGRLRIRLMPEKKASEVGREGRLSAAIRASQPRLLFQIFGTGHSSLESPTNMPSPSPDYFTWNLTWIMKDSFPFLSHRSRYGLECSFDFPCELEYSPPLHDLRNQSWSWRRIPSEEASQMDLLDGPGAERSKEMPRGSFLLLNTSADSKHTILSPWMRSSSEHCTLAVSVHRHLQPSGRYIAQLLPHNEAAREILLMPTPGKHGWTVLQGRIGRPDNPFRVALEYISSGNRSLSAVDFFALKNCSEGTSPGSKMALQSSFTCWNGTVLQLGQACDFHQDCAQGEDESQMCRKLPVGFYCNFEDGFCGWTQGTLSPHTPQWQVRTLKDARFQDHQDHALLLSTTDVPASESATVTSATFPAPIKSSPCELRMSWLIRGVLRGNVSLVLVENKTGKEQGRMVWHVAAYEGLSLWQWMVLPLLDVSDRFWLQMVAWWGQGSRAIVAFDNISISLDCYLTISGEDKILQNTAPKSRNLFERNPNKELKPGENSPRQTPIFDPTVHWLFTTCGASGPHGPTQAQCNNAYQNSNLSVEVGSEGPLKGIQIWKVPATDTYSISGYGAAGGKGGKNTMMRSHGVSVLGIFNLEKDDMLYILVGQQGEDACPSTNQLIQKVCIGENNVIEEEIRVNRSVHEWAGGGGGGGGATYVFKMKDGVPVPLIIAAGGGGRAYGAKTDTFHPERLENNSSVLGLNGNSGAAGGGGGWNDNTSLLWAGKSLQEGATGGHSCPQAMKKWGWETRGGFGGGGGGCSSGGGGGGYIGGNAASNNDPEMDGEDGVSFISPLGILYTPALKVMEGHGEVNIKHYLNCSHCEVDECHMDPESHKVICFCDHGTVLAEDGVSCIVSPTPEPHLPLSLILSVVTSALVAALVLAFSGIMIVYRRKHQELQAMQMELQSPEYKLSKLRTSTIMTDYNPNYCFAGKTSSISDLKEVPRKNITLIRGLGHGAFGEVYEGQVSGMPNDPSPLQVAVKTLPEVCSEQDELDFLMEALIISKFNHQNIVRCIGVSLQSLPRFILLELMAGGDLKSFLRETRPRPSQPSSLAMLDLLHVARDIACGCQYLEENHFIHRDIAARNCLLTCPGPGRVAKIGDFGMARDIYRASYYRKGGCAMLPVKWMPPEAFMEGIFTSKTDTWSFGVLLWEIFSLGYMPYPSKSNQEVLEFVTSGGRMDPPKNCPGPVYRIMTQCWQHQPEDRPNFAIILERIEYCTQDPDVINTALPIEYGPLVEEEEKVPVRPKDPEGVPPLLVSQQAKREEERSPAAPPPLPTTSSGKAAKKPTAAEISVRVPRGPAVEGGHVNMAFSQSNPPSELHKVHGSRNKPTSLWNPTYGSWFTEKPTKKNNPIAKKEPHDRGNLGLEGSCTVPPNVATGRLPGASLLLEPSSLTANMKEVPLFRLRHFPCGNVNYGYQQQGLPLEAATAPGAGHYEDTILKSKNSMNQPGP
assay-name: ALK kinase inhibition, TRF/ELISA
Type: biochemical
details: 1 μM ATP (Km level); read-out: ALK Potency
pIC50: −log10 of the molar value.
quantity-kind: pIC50

Supply recorded pIC50 for NC(=O)[C@@H]1[C@H](Nc2c(Cl)cnc3[nH]c(C4CCCNC4)nc23)[C@H]2C=C[C@@H]1C2 (single isomer, unassigned) here. < 5.00

---

Would you mind telling me the reported pIC50 of each entry?
system-name: UniProt Q9UM73
assay-name: ALK kinase inhibition, TRF/ELISA
Type: biochemical
details: read-out: ALK Potency
Experimental: Briefly, each 96-well plate was coated with 100 μL/well of 10 μg/mL substrate (GST-PLC-γ) in Tris-buffered saline (TBS). […] The reaction was initiated by adding enzyme (30 ng/mL ALK) and was allowed to proceed at 37° C. for 15 minutes. […] IC50 values were calculated by plotting percent inhibition versus log10 of the concentration of compound and fitting to the nonlinear regression sigmoidal dose-response (variable slope) equation in XLFit (IDBS, Guilford, UK).
pIC50: −log10 of the molar value.

Supply recorded pIC50 for CN1CCN(C(=O)c2ccc(-c3nc4c(N[C@H]5[C@@H](C(N)=O)[C@@H]6C=C[C@H]5C6)c(Cl)cnc4[nH]3)cc2)CC1 [Compound CCXXII] here. > 7.00

Supply recorded pIC50 for COc1cc(CN2CCN(C[C@@H](C)O)CC2)ccc1-c1nc2c(N[C@H]3[C@@H](C(N)=O)[C@@H]4C=C[C@H]3C4)c(Cl)cnc2[nH]1 [Compound XLIV] here. > 7.00

Supply recorded pIC50 for NC(=O)[C@@H]1[C@H](Nc2c(Br)cnc3[nH]c(-c4ccc(N5CCOCC5)c(Cl)c4)nc23)[C@H]2C=C[C@@H]1C2 [Compound CXXXV] here. 6.00 to 7.00

Supply recorded pIC50 for CN(C)c1nc(Cl)c(-c2nc3c(N[C@H]4[C@@H](C(N)=O)[C@@H]5C=C[C@H]4C5)c(Cl)cnc3[nH]2)s1 [Compound CLIV] here. > 7.00

Supply recorded pIC50 for COc1cccc(-c2nc3c(N[C@H]4[C@@H](C(N)=O)[C@@H]5C=C[C@H]4C5)c(Cl)cnc3[nH]2)n1 [Compound CXXIV] here. > 7.00

Supply recorded pIC50 for NC(=O)[C@@H]1[C@H](Nc2c(Br)cnc3[nH]c(-c4cccnc4N4CCCC4)nc23)[C@H]2C=C[C@@H]1C2 [Compound CV] here. 5.00 to 6.00

Supply recorded pIC50 for COc1cc(N2CCOCC2)ccc1-c1nc2c(N[C@H]3[C@@H](C(N)=O)[C@@H]4CC[C@H]3O4)c(Cl)cnc2[nH]1 [Compound CCVI] here. 6.00 to 7.00

Supply recorded pIC50 for CN1CCN(C(=O)COc2cccc(-c3nc4c(N[C@H]5[C@@H](C(N)=O)[C@@H]6C=C[C@H]5C6)c(Cl)cnc4[nH]3)c2)CC1 [Compound CCXLIII] here. > 7.00

Supply recorded pIC50 for NC(=O)[C@@H]1[C@H](Nc2c(Cl)cnc3[nH]c(-c4cccc(OCCN5CCOCC5)c4)nc23)[C@H]2C=C[C@@H]1C2 [Compound CCXXXVII] here. > 7.00

Supply recorded pIC50 for COc1ccc(-c2nc3c(N[C@H]4[C@@H](C(N)=O)[C@@H]5C=C[C@H]4C5)c(Cl)cnc3[nH]2)c(C2CCN(C[C@H](O)CO)CC2)c1 [Compound XXXIII] here. 6.00 to 7.00

Supply recorded pIC50 for CC(=O)N1CCN(Cc2ccc(-c3nc4c(N[C@H]5[C@@H](C(N)=O)[C@@H]6C=C[C@H]5C6)c(Cl)cnc4[nH]3)cc2)CC1 [Compound CLVII] here. > 7.00

Supply recorded pIC50 for Cc1ccc(-c2nc3c(N[C@H]4[C@@H](C(N)=O)[C@@H]5C=C[C@H]4C5)c(Br)cnc3[nH]2)o1 [Compound CX] here. 6.00 to 7.00

Supply recorded pIC50 for NC(=O)[C@@H]1[C@H](Nc2c(Br)cnc3[nH]c(-c4cccc(CN5CCOCC5)c4)nc23)[C@H]2C=C[C@@H]1C2 [Compound LXXXI] here. > 7.00

Cited source: patent US9238656B2
